// provenance: paper PMC5540273

system: MLK1; construct: gene MAP3K9; conditions: concentration: 1 μM,replicates: in singlicate; n = 1;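 further: KINOMEscan kinase panel screen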
Assignment: determine reported %Inh for the given molecules.
One number for each entry, in %.

[
  {
    "molecule": "Cn1ccc2ncnc(Oc3ccc(NC(=O)Nc4cnn(C(C)(C)C)c4)c(Cl)c3)c21",
    "tested-system": "MLK1",
    "%Inh / %": 30
  },
  {
    "molecule": "NC(=O)c1ccc(-c2cc3ncnc(SCC(=O)O)c3s2)cc1",
    "tested-system": "MLK1",
    "%Inh / %": 0
  },
  {
    "molecule": "CS(=O)(=O)Nc1ccc(-c2ccnc3[nH]ccc23)cc1 [GSK993273]",
    "tested-system": "MLK1",
    "%Inh / %": 4
  },
  {
    "molecule": "Cc1ccn2nc(-c3ccc(F)cc3)c(-c3ccncc3)c2c1.Cl [GW457859]",
    "tested-system": "MLK1",
    "%Inh / %": 0
  }
]

Provide %Inh for all items below, preserving their order.
1. COc1cc2ncn(-c3cc(OCC4CCCCC4)c(C(N)=O)s3)c2cc1OC [GSK204559]
2. Cc1n[nH]c2cc(Nc3ccnc(Nc4cccc(CN5CCOCC5)c4)n3)ccc12 [GW682569]
3. CC(=O)Nc1ccc(-c2cc3ncnc(SCC(=O)O)c3s2)cc1
4. C[C@@H]1CNc2c(sc3ccc4nc(-c5ccc(O)cc5)ccc4c23)C(=O)N1

Output:
12
89
0
0
